# Lookup of reported melting point keyed by entry

Use these answered entries as a reference point.
Problem: # lookup: melting point of O=C(CC(=O)c1ccc(-c2ccccc2)cc1)Nc1ccc(OCCN2CCCC2)c(C(=O)O)c1
Solution: 236 to 240 °C

Problem: Also check O=C(CC(=O)c1ccc(-c2ccccc2)cc1)NCCc1ccc(CN2CCCC2)cc1
Solution: 121 to 125 °C

***
Problem: # lookup: melting point of COC(=O)c1cc(NC(=O)CC(=O)c2ccc(-c3ccccc3)cc2)ccc1OCCN1CCCC1
Solution: 131 to 135 °C

Problem: Also check CC1CCN(CCOc2ccc(NC(=O)CC(=O)c3ccc(-c4ccccc4)cc3)cc2Cl)CC1
Solution: 135 to 139 °C

Problem: Also check CCN(CC)CCOc1ccc(NC(=O)CC(=O)c2ccc(-c3ccccc3)cc2)cc1Cl
Solution: 148 to 151 °C

====

Molecular target: UniProtKB Q99705
Sequence (Q99705 whole entry): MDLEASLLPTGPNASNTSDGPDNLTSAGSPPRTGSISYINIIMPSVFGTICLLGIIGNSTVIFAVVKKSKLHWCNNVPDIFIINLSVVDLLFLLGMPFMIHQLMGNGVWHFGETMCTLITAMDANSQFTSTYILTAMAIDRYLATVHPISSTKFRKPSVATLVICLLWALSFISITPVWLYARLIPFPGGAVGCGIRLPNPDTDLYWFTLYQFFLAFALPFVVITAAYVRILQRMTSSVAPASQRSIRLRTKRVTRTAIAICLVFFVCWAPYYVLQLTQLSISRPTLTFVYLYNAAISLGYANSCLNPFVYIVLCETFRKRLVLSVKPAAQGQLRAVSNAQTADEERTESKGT
measured_endpoint: IC50 (µM)
Number in µM, nothing else.

Problem: # lookup: IC50 of CCN(CC)CCOc1ccc(NC(=O)CC(=O)c2ccc(C(F)(F)F)cc2Cl)cc1Cl
Solution: 0.0348
